EXPERIMENT: Hepatocyte intrinsic clearance assay
Type: in vitro ADME, human
CONDITION LABEL: human, pooled donor, cryopreserved hepatocytes, pH 7.4, 0.1 μM, 2 h at 37° C., 1×10^6 hepatocytes/mL; * measured on 3 separate occasions, ** on a single occasion
With a cut-off of 6 mL/min/kg, any CLint scaled at 0.1 μM strictly below it is called MET; any CLint scaled at 0.1 μM meeting it or above is called NOT MET.

{"MOLECULE": "[2H]C([2H])([2H])c1c2c(nn1[C@@H]1CCOC[C@H]1F)OCCCn1nc(Cl)c3cnc(nc31)N2 (single isomer, unassigned) [Example 62]", "DISCRETE LABEL": "MET"}

Ask | Is CLint scaled at 0.1 μM of Cc1c2c(nn1[C@@H]1CCO[C@H](C)C1)OCCCn1nc(Cl)c3cnc(nc31)N2 (single isomer, unassigned) [Example 18] strictly below 6 mL/min/kg?
Reply | MET

Ask | Is it true that CLint scaled at 0.1 μM reported for Cc1c2c(nn1[C@@H]1CCOC[C@H]1F)OCCCn1nc(Cl)c3cnc(nc31)N2 (single isomer, unassigned) [Example 31] is less than 6 mL/min/kg?
Reply | MET

* * *

EXPERIMENT: Rat B/P (brain disposition)
Format: in vivo, male Sprague-Dawley rats
CONDITION LABEL: male, Sprague-Dawley, brain/plasma, oral gavage 5 mg/kg, time point 0.5 h, fubrain from brain homogenate
MEASURED ATTRIBUTE: Kp uu at 0.5 h
Please reply with the number alone, leaving off any unit.

Ask | Param item = Cc1c2c(nn1[C@H]1CCOC[C@]1(C)F)OCCCn1nc(Cl)c3cnc(nc31)N2 (single isomer, unassigned) ; retrieve measured Kp uu at 0.5 h.
Reply | 0.57

Ask | For Cc1c2c(nn1[C@@H]1CC1(F)F)OCCCn1nc(Cl)c3cnc(nc31)N2 (single isomer, unassigned) , what is its reported Kp uu at 0.5 h?
Reply | 0.72

* * *

EXPERIMENT: Rat B/P (brain disposition)
Type: in vivo, male Sprague-Dawley rats
CONDITION LABEL: male, Sprague-Dawley, brain/plasma, oral gavage 10 mg/kg, time point 0.5 h, mean ± stdev, n = 3
MEASURED ATTRIBUTE: Kp at 0.5 h
Output spec: single numeric token, no unit.

{"COMPOUND": "Cc1c2c(nn1[C@H]1CCOC(C)(C)C1)OCCCn1nc(Cl)c3cnc(nc31)N2 (single isomer, unassigned) [Example 42]", "Kp at 0.5 h": 1.88}

Ask | Query (compound): Cc1c2c(nn1[C@@H]1C[C@H]3CC[C@@H](C1)O3)OCCCn1nc(Cl)c3cnc(nc31)N2 [Example 44] ; field requested: Kp at 0.5 h
Reply | 1.56

Ask | Which Kp at 0.5 h value is on record for CO[C@H]1CC[C@H](n2nc3c(c2C)Nc2ncc4c(Cl)nn(c4n2)CCCO3)CC1 [Example 37] ?
Reply | 1.87

Ask | Any idea what Kp at 0.5 h was measured for Cc1c2c(nn1[C@H]1C[C@@H](C)O[C@@H](C)C1)OCCCn1nc(Cl)c3cnc(nc31)N2 [Example 41] ?
Reply | 2.5

Ask | Name the reported Kp at 0.5 h value associated with the compound Cc1c2c(nn1[C@H]1[C@@H]3COC[C@@H]31)OCCCn1nc(Cl)c3cnc(nc31)N2 [Example 38]
Reply | 1.58

Ask | Recorded Kp at 0.5 h of Cc1c2c(nn1[C@@H]1CCO[C@H](C)C1)OCCCn1nc(Cl)c3cnc(nc31)N2 (single isomer, unassigned) [Example 19] , please.
Reply | 1.28
